Test system: HOP-62 complex spheroids with HUVEC/MSC, viability
test: Anticancer human tumor HOP-62 cell line growth inhibition [RAS];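 note: spheroids exposed to agents for seven days before readout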
assay-context: second compound 0.1 µM; first compound 10 µM; stronger effect = lower value
Hi! Could you tag entries with viability, T/C below 30% as criterion met, and those at or above as criterion not met? Much appreciated.

{"columns": ["compound", "discrete-label"],
 "data": [
  ["Cc1nc(N2CCC3(CC2)COC(C)C3N)c(CO)nc1Sc1ccnc(N)c1Cl (stereo not drawn) + C=CC(=O)N1CCN(c2nc(OCC3CCCN3C)nc3c(F)c(-c4nc(N)cc(C)c4C(F)(F)F)c(Cl)cc23)C(C)C1", "criterion met"],
  ["NC1c2ccccc2OC12CCN(c1cnc3c(N4CCCc5ncccc54)n[nH]c3n1)CC2 (stereo not drawn) + C#Cc1c(F)ccc2cc(O)cc(-c3ncc4c(N5CC6CCC(C5)N6)nc(OCC56CCCN5CC(F)C6)nc4c3F)c12", "criterion met"],
  ["CC1(O)CCCC1n1c(=O)c(C(F)F)cc2cnc(NC3CCN(S(C)(=O)=O)CC3)nc21 (stereo not drawn) + C#Cc1c(F)ccc2cc(O)cc(-c3ncc4c(N5CC6CCC(C5)N6)nc(OCC56CCCN5CC(F)C6)nc4c3F)c12", "criterion met"],
  ["CCC(CC)c1cc(NC2CCC(N)C2)n2nccc2n1 (stereo not drawn) + C=CC(=O)N1CCN(c2nc(OCC3CCCN3C)nc3c(F)c(-c4nc(N)cc(C)c4C(F)(F)F)c(Cl)cc23)C(C)C1", "criterion met"],
  ["CC(C)NCC(C(=O)N1CCN(c2ncnc3c2C(C)CC3O)CC1)c1ccc(Cl)cc1 (stereo not drawn) + C=CC(=O)N1CCN(c2nc(OCC3CCCN3C)nc3c(F)c(-c4nc(N)cc(C)c4C(F)(F)F)c(Cl)cc23)C(C)C1", "criterion met"],
  ["CC(=O)OC12COC1CC(O)C1(C)C(=O)C(O)C3=C(C)C(OC(=O)C(O)C(NC(=O)OC(C)(C)C)c4ccccc4)CC(O)(C(OC(=O)c4ccccc4)C21)C3(C)C (stereo not drawn) + C=CC(=O)N1CCN(c2nc(OCC3CCCN3C)nc3c(F)c(-c4nc(N)cc(C)c4C(F)(F)F)c(Cl)cc23)C(C)C1", "criterion met"],
  ["CC(C)NCC(C(=O)N1CCN(c2ncnc3c2C(C)CC3O)CC1)c1ccc(Cl)cc1 (stereo not drawn) + C#Cc1c(F)ccc2cc(O)cc(-c3ncc4c(N5CC6CCC(C5)N6)nc(OCC56CCCN5CC(F)C6)nc4c3F)c12", "criterion met"],
  ["Cc1nc(N2CCC3(CC2)COC(C)C3N)c(CO)nc1Sc1ccnc(N)c1Cl (stereo not drawn) + C#Cc1c(F)ccc2cc(O)cc(-c3ncc4c(N5CC6CCC(C5)N6)nc(OCC56CCCN5CC(F)C6)nc4c3F)c12", "criterion not met"],
  ["CC1(O)CCCC1n1c(=O)c(C(F)F)cc2cnc(NC3CCN(S(C)(=O)=O)CC3)nc21 (stereo not drawn) + C=CC(=O)N1CCN(c2nc(OCC3CCCN3C)nc3c(F)c(-c4nc(N)cc(C)c4C(F)(F)F)c(Cl)cc23)C(C)C1", "criterion met"],
  ["CC(=O)OC12COC1CC(O)C1(C)C(=O)C(O)C3=C(C)C(OC(=O)C(O)C(NC(=O)OC(C)(C)C)c4ccccc4)CC(O)(C(OC(=O)c4ccccc4)C21)C3(C)C (stereo not drawn) + C#Cc1c(F)ccc2cc(O)cc(-c3ncc4c(N5CC6CCC(C5)N6)nc(OCC56CCCN5CC(F)C6)nc4c3F)c12", "criterion met"],
  ["NC1c2ccccc2OC12CCN(c1cnc3c(N4CCCc5ncccc54)n[nH]c3n1)CC2 (stereo not drawn) + C=CC(=O)N1CCN(c2nc(OCC3CCCN3C)nc3c(F)c(-c4nc(N)cc(C)c4C(F)(F)F)c(Cl)cc23)C(C)C1", "criterion met"],
  ["C[C@@H](NC(=O)c1ncnc(N)c1Cl)c1ncc(C(=O)Nc2cc(C(F)(F)F)c(Cl)cn2)s1 + C#Cc1c(F)ccc2cc(O)cc(-c3ncc4c(N5CC6CCC(C5)N6)nc(OCC56CCCN5CC(F)C6)nc4c3F)c12", "criterion not met"],
  ["CCC(CC)c1cc(NC2CCC(N)C2)n2nccc2n1 (stereo not drawn) + C#Cc1c(F)ccc2cc(O)cc(-c3ncc4c(N5CC6CCC(C5)N6)nc(OCC56CCCN5CC(F)C6)nc4c3F)c12", "criterion met"]
]}
